# Tested on: Serum
# protocol-notes: Drug level in C57BL/6 mouse serum at 60 mg/kg, po
# Format: ADME, organism-based
# Set-up: dose 60 mg/kg, route oral
# condition-parameters: in vivo, read-out: Drug uptake
outcome-measure: concentration (µM)
// return numeric value only (unit: µM, not printed)

Exam item: Quickly give me recorded concentration for CCOc1ccc(Nc2c(C)c(N[C@H]3CCCNC3)nc3ccnn23)cc1
Marked response: 8

* * *

# target-under-test: MAP kinase-activated protein kinase 2 (Homo sapiens, UniProt P49137)
# Sequence (P49137 whole entry): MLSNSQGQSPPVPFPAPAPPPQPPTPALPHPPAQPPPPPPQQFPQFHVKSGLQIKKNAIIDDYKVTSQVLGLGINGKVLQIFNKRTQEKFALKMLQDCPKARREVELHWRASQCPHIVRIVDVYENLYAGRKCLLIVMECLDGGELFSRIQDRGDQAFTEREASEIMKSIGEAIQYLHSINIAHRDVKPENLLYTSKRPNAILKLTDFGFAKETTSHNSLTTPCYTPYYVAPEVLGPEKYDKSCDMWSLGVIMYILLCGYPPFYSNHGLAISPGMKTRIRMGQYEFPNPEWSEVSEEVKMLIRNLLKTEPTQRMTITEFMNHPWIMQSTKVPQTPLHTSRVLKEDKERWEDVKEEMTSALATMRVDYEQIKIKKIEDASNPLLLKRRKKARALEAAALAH
# protocol-notes: Inhibition of MAPKAP-K2 using KKLNRTLSVA as substrate and [33P]-gamma-ATP after 30 mins by liquid scintillation counter
pIC50: −log10 of the molar value.
Entry flag: Fulfilled if pIC50 reaches 6; Not fulfilled if it does not.

These recorded examples may help you get a feel for the data.
> print(dat)
                                   compound     class.name
1  CC(=O)c1ccc(-c2ccc(Nc3c(C)c(N[C@H]4CCCNC4)nc4ccnn34)cc2)s1      Fulfilled
2  CC(C)CCNc1cc(N[C@H]2CC[C@H](N)CC2)nc2ccnn12  Not fulfilled
3  N[C@H]1CC[C@H](Nc2cc(NCc3ccccc3)n3nccc3n2)CC1  Not fulfilled
4    Fc1ccc(Nc2cc(NC3CCCCC3)nc3ccnn23)cc1Cl  Not fulfilled
5  N[C@H]1CC[C@H](Nc2cc(Nc3ccccc3Cl)n3nccc3n2)CC1      Fulfilled

Exam item: Dear colleague, could you confirm whether Fc1ccc(Nc2cc(NC3CCNCC3)nc3ccnn23)cc1Cl has pIC50 at or above 6?
Marked response: Not fulfilled

Exam item: Dear colleague, could you confirm whether Cc1c(NC2CCCNC2)nc2ccnn2c1Nc1ccc(F)c(Cl)c1 (racemic) has pIC50 at or above 6?
Marked response: Fulfilled

Exam item: Dear colleague, could you confirm whether CCOc1ccc(Nc2c(C)c(N[C@H]3CCCNC3=O)nc3ccnn23)cc1 has pIC50 at or above 6?
Marked response: Not fulfilled

Exam item: Dear colleague, could you confirm whether CC(C)(C)c1cc2nc(N[C@H]3CC[C@H](N)CC3)cc(Nc3ccc(F)c(Cl)c3)n2n1 has pIC50 at or above 6?
Marked response: Not fulfilled

Exam item: Dear colleague, could you confirm whether CCOc1ccc(Nc2c(C)c(NCCO)nc3ccnn23)cc1 has pIC50 at or above 6?
Marked response: Not fulfilled

Exam item: Dear colleague, could you confirm whether Cc1cc2nc(N[C@H]3CC[C@H](N)CC3)cc(Nc3ccc(F)c(Cl)c3)n2n1 has pIC50 at or above 6?
Marked response: Not fulfilled

Exam item: Dear colleague, could you confirm whether CCOc1ccc(Nc2c(C)c(NCCCCN)nc3ccnn23)cc1 has pIC50 at or above 6?
Marked response: Not fulfilled

Exam item: Dear colleague, could you confirm whether CCOc1ccc(Nc2c(C)c(O[C@H]3CC[C@H](N)CC3)nc3ccnn23)cc1 has pIC50 at or above 6?
Marked response: Fulfilled

Exam item: Dear colleague, could you confirm whether Cc1c(N[C@H]2CC[C@H](N)CC2)nc2ccnn2c1Nc1ccc(F)c(Cl)c1 has pIC50 at or above 6?
Marked response: Fulfilled

Exam item: Dear colleague, could you confirm whether N[C@H]1CC[C@H](Nc2cc(Nc3ccc(F)c(Cl)c3)n3ncc(Cl)c3n2)CC1 has pIC50 at or above 6?
Marked response: Not fulfilled
